Test system: GR chargés
EXPERIMENT: Extracellular leak from loaded red blood cells, 24 h incubation
Assay type: in vitro ADME
CONDITIONS_USED: 4°C
Tick T if GR chargés : Incubation 24h Fuite extra-cellulaire 4°C is 5% or greater. Tick F if GR chargés : Incubation 24h Fuite extra-cellulaire 4°C is less than 5%.

> print(dat)
                                   compound  assigned.class
1  O=C1CC[C@@]2(OS(=O)(=O)O)[C@H]3Cc4ccc(OS(=O)(=O)O)c5c4[C@@]2(CCN3CC2CC2)[C@H]1O5 [naltrexone-3,14-disulfate]               T
2  C=CCN1CC[C@]23c4c5ccc(OP(=O)(O)OC)c4O[C@H]2C(=O)CC[C@@]3(O)[C@H]1C5 [naloxone-3-phosphate(OMe)]               T
3  C=CCN1CC[C@]23c4c5ccc(OP(=O)(O)OP(=O)(O)OP(=O)(O)O)c4O[C@H]2C(=O)CC[C@@]3(O)[C@H]1C5 [naloxone-3-triphopshate]               F
4  O=C1CC[C@@]2(O)[C@H]3Cc4ccc(OP(=O)(O)OP(=O)(O)OP(=O)(O)O)c5c4[C@@]2(CCN3CC2CC2)[C@H]1O5 [naltrexone-3-triphosphate]               F
5  C=CCN1CC[C@]23c4c5ccc(OP(=O)(O)O)c4O[C@H]2C(=O)CC[C@@]3(O)[C@H]1C5 [naloxone-3-phosphate]               F
6  O=C1CC[C@@]2(O)[C@H]3Cc4ccc(OP(=O)(O)O)c5c4[C@@]2(CCN3CC2CC2)[C@H]1O5 [naltrexone-3-phosphate]               F

----------
TARGET_UNDER_TEST: sites opioides de type k (Cavia porcellus)
pKi: −log10 of the molar value.
Rule: Yes for pKi not less than 6, No for anything less.

> print(dat)
                                   compound  assigned.class
1  C=CCN1CC[C@]23c4c5ccc(OP(=O)(O)OP(=O)(O)OP(=O)(O)O)c4O[C@H]2C(=O)CC[C@@]3(O)[C@H]1C5 [naloxone-3-triphopshate]             Yes
2  O=C1CC[C@@]2(O)[C@H]3Cc4ccc(OS(=O)(=O)O)c5c4[C@@]2(CCN3CC2CC2)[C@H]1O5 [naltrexone-3-sulfate]             Yes
3  C=CCN1CC[C@]23c4c5ccc(OS(=O)(=O)O)c4O[C@H]2C(=O)CC[C@@]3(OS(=O)(=O)O)[C@H]1C5 [naloxone-3,14-disulfate]              No
4  O=C1CC[C@@]2(OS(=O)(=O)O)[C@H]3Cc4ccc(OS(=O)(=O)O)c5c4[C@@]2(CCN3CC2CC2)[C@H]1O5 [naltrexone-3,14-disulfate]              No
5  O=C1CC[C@@]2(O)[C@H]3Cc4ccc(OP(=O)(O)OP(=O)(O)OP(=O)(O)O)c5c4[C@@]2(CCN3CC2CC2)[C@H]1O5 [naltrexone-3-triphosphate]             Yes
6  O=C1CC[C@@]2(O)[C@H]3Cc4ccc(OP(=O)(O)O)c5c4[C@@]2(CCN3CC2CC2)[C@H]1O5 [naltrexone-3-phosphate]             Yes
7  COP(=O)(O)Oc1ccc2c3c1O[C@H]1C(=O)CC[C@@]4(O)[C@@H](C2)N(CC2CC2)CC[C@]314 [naltrexone-3-phosphate(OMe)]             Yes

----------
Tested on: GR chargés
EXPERIMENT: Extracellular leak from loaded red blood cells, 24 h incubation
Format: in vitro ADME
CONDITIONS_USED: 37°C
Source text: Ces composés ont été également testés pour leur absorption membranaire et stabilité érythrocitaire et plasmatique.
Note to self: GR chargés : Incubation 24h Fuite extra-cellulaire 37°C under 40% means 1, ties and anything higher get 0.

> print(dat)
                                   compound  target.under.test  assigned.class
1  C=CCN1CC[C@]23c4c5ccc(OP(=O)(O)OP(=O)(O)OP(=O)(O)O)c4O[C@H]2C(=O)CC[C@@]3(O)[C@H]1C5 [naloxone-3-triphopshate]         GR chargés               1
2  O=C1CC[C@@]2(OS(=O)(=O)O)[C@H]3Cc4ccc(OS(=O)(=O)O)c5c4[C@@]2(CCN3CC2CC2)[C@H]1O5 [naltrexone-3,14-disulfate]         GR chargés               0
3  C=CCN1CC[C@]23c4c5ccc(OS(=O)(=O)O)c4O[C@H]2C(=O)CC[C@@]3(OS(=O)(=O)O)[C@H]1C5 [naloxone-3,14-disulfate]         GR chargés               0
4  C=CCN1CC[C@]23c4c5ccc(OP(=O)(O)O)c4O[C@H]2C(=O)CC[C@@]3(O)[C@H]1C5 [naloxone-3-phosphate]         GR chargés               1
5  O=C1CC[C@@]2(O)[C@H]3Cc4ccc(OP(=O)(O)OP(=O)(O)OP(=O)(O)O)c5c4[C@@]2(CCN3CC2CC2)[C@H]1O5 [naltrexone-3-triphosphate]         GR chargés               1
6  O=C1CC[C@@]2(O)[C@H]3Cc4ccc(OP(=O)(O)O)c5c4[C@@]2(CCN3CC2CC2)[C@H]1O5 [naltrexone-3-phosphate]         GR chargés               1

----------
# Adsorption membranaire à Hte 45% values compiled below
Test system: membrane érythrocytaire
EXPERIMENT: Membrane adsorption at haematocrit 45%
Format: in vitro ADME
QUANTITY_NAME: Adsorption membranaire à Hte 45% (%)

> print(dat)
                                   compound                     quantity.name  unit.spec  endpoint.value
1  C=CCN1CC[C@]23c4c5ccc(OP(=O)(O)OC)c4O[C@H]2C(=O)CC[C@@]3(O)[C@H]1C5 [naloxone-3-phosphate(OMe)]  Adsorption membranaire à Hte 45%          %              10
2  O=C1CC[C@@]2(OS(=O)(=O)O)[C@H]3Cc4ccc(OS(=O)(=O)O)c5c4[C@@]2(CCN3CC2CC2)[C@H]1O5 [naltrexone-3,14-disulfate]  Adsorption membranaire à Hte 45%          %              40
3  C=CCN1CC[C@]23c4c5ccc(OS(=O)(=O)O)c4O[C@H]2C(=O)CC[C@@]3(OS(=O)(=O)O)[C@H]1C5 [naloxone-3,14-disulfate]  Adsorption membranaire à Hte 45%          %              34
4  O=C1CC[C@@]2(O)[C@H]3Cc4ccc(OP(=O)(O)O)c5c4[C@@]2(CCN3CC2CC2)[C@H]1O5 [naltrexone-3-phosphate]  Adsorption membranaire à Hte 45%          %              22
5  C=CCN1CC[C@]23c4c5ccc(OP(=O)(O)O)c4O[C@H]2C(=O)CC[C@@]3(O)[C@H]1C5 [naloxone-3-phosphate]  Adsorption membranaire à Hte 45%          %               0
6  C=CCN1CC[C@]23c4c5ccc(OP(=O)(O)OP(=O)(O)OP(=O)(O)O)c4O[C@H]2C(=O)CC[C@@]3(O)[C@H]1C5 [naloxone-3-triphopshate]  Adsorption membranaire à Hte 45%          %              22
7  O=C1CC[C@@]2(O)[C@H]3Cc4ccc(OP(=O)(O)OP(=O)(O)OP(=O)(O)O)c5c4[C@@]2(CCN3CC2CC2)[C@H]1O5 [naltrexone-3-triphosphate]  Adsorption membranaire à Hte 45%          %              22
8  COP(=O)(O)Oc1ccc2c3c1O[C@H]1C(=O)CC[C@@]4(O)[C@@H](C2)N(CC2CC2)CC[C@]314 [naltrexone-3-phosphate(OMe)]  Adsorption membranaire à Hte 45%          %              10

----------
TARGET_UNDER_TEST: sites opioides de type µ (Oryctolagus cuniculus, UniProt G1TAQ8)
Construct: fraction membranaire brute obtenue à partir de tissu frais (cervelet de lapin, cervelet de cobaye); from tissue; host or cells: rabbit cerebellum (New Zealand rabbits), crude membrane fraction
EXPERIMENT: [3H]diprenorphine competition binding, crude membrane fraction of rabbit cerebellum
Parameters: species or system lapin
CONDITIONS_USED: [3H]diprenorphine 0,3 nM, rabbit cerebellum membranes, 1 h at 25°C; (n) in brackets; read-out: I50µ (concentration inhibitrice 50)
pIC50: −log10 of the molar value.
Mark condition met for reported pIC50 of 7 or greater; mark condition not met for anything smaller.

> print(dat)
                                   compound                         target.under.test     assigned.class
1  O=C1CC[C@@]2(O)[C@H]3Cc4ccc(OP(=O)(O)O)c5c4[C@@]2(CCN3CC2CC2)[C@H]1O5 [naltrexone-3-phosphate]  sites opioides de type µ (Oryctolagus cuniculus, UniProt G1TAQ8)      condition met
2  C=CCN1CC[C@]23c4c5ccc(OP(=O)(O)OC)c4O[C@H]2C(=O)CC[C@@]3(O)[C@H]1C5 [naloxone-3-phosphate(OMe)]  sites opioides de type µ (Oryctolagus cuniculus, UniProt G1TAQ8)  condition not met
3  O=C1CC[C@@]2(OS(=O)(=O)O)[C@H]3Cc4ccc(OS(=O)(=O)O)c5c4[C@@]2(CCN3CC2CC2)[C@H]1O5 [naltrexone-3,14-disulfate]  sites opioides de type µ (Oryctolagus cuniculus, UniProt G1TAQ8)  condition not met
4  C=CCN1CC[C@]23c4c5ccc(OS(=O)(=O)O)c4O[C@H]2C(=O)CC[C@@]3(O)[C@H]1C5 [naloxone-3-sulfate]  sites opioides de type µ (Oryctolagus cuniculus, UniProt G1TAQ8)  condition not met
5  O=C1CC[C@@]2(O)[C@H]3Cc4ccc(OS(=O)(=O)O)c5c4[C@@]2(CCN3CC2CC2)[C@H]1O5 [naltrexone-3-sulfate]  sites opioides de type µ (Oryctolagus cuniculus, UniProt G1TAQ8)  condition not met
